Attribution: patent US8148391B2

# ASSAY TARGET: baculovirus-expressed ALK (Homo sapiens, UniProt Q9UM73)
# Construct: host or cells: baculovirus expression system
# Sequence (Q9UM73 19-1620): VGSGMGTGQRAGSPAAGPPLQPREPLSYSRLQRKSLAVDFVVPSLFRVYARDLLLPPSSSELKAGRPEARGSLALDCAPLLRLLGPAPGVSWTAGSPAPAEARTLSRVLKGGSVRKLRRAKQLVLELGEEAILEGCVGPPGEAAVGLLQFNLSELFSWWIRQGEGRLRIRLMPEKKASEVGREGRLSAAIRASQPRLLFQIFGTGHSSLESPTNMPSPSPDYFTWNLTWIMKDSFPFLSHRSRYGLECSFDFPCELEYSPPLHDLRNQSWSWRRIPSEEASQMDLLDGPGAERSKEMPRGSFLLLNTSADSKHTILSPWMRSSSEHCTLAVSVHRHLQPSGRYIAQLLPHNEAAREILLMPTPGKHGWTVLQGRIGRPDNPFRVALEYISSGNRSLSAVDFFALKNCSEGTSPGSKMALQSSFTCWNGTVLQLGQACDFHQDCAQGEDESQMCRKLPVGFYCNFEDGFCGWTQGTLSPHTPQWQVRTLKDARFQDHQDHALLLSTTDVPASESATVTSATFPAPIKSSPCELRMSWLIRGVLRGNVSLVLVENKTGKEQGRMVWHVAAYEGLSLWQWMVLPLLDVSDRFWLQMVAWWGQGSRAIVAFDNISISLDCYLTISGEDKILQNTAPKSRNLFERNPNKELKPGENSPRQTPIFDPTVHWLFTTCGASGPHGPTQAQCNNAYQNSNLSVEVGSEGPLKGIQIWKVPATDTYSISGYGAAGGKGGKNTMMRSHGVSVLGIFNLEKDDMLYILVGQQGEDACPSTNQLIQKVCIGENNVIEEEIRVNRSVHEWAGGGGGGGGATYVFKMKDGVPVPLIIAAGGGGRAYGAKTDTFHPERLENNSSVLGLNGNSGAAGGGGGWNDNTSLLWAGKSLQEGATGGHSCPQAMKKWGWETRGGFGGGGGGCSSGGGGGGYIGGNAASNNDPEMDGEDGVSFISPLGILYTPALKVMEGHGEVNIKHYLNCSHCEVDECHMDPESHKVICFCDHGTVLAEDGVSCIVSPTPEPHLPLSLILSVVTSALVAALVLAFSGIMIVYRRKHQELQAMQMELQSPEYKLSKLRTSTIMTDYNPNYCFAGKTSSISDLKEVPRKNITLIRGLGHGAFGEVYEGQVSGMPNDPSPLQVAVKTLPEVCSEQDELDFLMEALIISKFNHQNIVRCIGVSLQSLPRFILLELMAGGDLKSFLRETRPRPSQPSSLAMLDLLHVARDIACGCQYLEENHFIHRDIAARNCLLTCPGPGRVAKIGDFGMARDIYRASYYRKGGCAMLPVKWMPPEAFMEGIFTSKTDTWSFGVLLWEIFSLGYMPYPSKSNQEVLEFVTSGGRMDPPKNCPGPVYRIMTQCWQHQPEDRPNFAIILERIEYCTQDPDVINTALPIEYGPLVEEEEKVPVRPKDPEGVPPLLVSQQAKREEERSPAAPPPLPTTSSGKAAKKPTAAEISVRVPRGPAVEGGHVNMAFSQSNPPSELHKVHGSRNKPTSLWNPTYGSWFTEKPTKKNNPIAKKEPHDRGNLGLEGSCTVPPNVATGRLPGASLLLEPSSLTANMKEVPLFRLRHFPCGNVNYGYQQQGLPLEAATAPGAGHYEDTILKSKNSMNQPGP
# EXPERIMENT NOTES: ALK Kinase Assay (ELISA-type, time-resolved fluorescence)
# Format: biochemical
# EXPERIMENTAL SETUP: 1 μM ATP (Km level), 30 ng/ml ALK, 37° C., 15 minutes; read-out: ALK Activity (ALK kinase inhibition, IC50 class)
REPORTED PROPERTY: IC50

Take a look at these entries with their results.
[[record]]
compound = "COc1cccc(C(=O)NCCC#N)c1Nc1nc(Nc2ccc3c(c2)CCCC(=O)N3C)ncc1Cl [Example 1062]"
reported_property = "IC50"
recorded_measurement = "> 10000 nM"

[[record]]
compound = "COCCN1CCc2ccc(Nc3ncc(Cl)c(Nc4ccccc4C(=O)NCC(C)C)n3)cc2CC1 [Example 1396]"
reported_property = "IC50"
recorded_measurement = "< 100 nM"

[[record]]
compound = "CNC(=O)c1cccc(F)c1Nc1nc(Nc2ccc3c(c2)NC(=O)C(NC(C)=O)CC3(C)C)ncc1Cl (stereo not shown) [Example 1289]"
reported_property = "IC50"
recorded_measurement = "100 to 1000 nM"


Shifting focus to the compound that follows.
// query Lab note: record IC50 of CN1C(=O)OCCc2cc(Nc3ncc(Cl)c(Oc4c(F)cccc4OC4CCOC4)n3)ccc21 (stereo not shown) [Example 1307] tested on baculovirus-expressed ALK (Homo sapiens, UniProt Q9UM73).
// result 100 to 1000 nM

* * *

A collection of compounds and their measured pIC50
# ASSAY TARGET: c-Met (cytoplasmic domain) (Homo sapiens, UniProt P08581)
# Construct: 10 ng/mL c-Met (cytoplasmic domain, Invitrogen Corporation #PV3143); purchased Invitrogen Corporation PV3143
# Sequence (P08581 956-1390 limits assumed): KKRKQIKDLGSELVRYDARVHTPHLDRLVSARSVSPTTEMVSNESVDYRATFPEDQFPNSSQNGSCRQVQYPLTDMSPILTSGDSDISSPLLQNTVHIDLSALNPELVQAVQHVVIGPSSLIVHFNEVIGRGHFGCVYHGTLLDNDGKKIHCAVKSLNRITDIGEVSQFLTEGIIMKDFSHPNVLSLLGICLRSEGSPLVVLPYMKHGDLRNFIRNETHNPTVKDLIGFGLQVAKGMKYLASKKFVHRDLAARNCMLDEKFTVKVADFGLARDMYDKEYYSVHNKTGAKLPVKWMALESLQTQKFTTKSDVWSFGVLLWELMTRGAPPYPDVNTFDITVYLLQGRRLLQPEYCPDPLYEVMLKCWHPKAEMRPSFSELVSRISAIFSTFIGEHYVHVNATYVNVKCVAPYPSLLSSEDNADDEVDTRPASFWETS
# EXPERIMENT NOTES: c-Met Kinase Assay (same methods as for ALK, with modifications)
# Format: biochemical
# EXPERIMENTAL SETUP: 1 μM ATP (Km level); read-out: cMet Activity (c-Met Kinase Inhibition, IC50)
pIC50: −log10 of the molar value.

[[record]]
compound = "COCCN1CCc2ccc(Nc3ncc(Cl)c(Nc4ccccc4-c4ncccn4)n3)cc2CC1"
recorded_measurement = "6.00 to 7.00"

[[record]]
compound = "CCCNC(=O)c1ccc(Nc2nc(Nc3ccc4c(c3)CCC(N3CCOCC3)CC4)ncc2Cl)c(OC)c1 (stereo not shown)"
recorded_measurement = "< 5.00"

[[record]]
compound = "COc1cc2c(cc1Nc1ncc(Cl)c(Nc3ccccc3S(=O)(=O)N3CC[C@H](C)C3)n1)CCN(CCO)CC2"
recorded_measurement = "6.00 to 7.00"

[[record]]
compound = "COc1cc2c(cc1Nc1ncc(Cl)c(Nc3ccc(N(C)C)cc3S(=O)(=O)N(C)C)n1)CCN(CC(=O)N(C)C)CC2"
recorded_measurement = "< 5.00"

[[record]]
compound = "CN1CCN(C2CCN(C3CCc4ccc(Nc5ncc(Cl)c(N[C@H]6[C@@H](C(N)=O)[C@@H]7C=C[C@H]6C7)n5)cc4CC3)CC2)CC1 (stereo partly shown)"
recorded_measurement = "6.00 to 7.00"


// query Report pIC50 for CCN1C(=O)CCCc2cc(Nc3ncc(Cl)c(Nc4ccc(OC)cc4-n4cccn4)n3)c(OC)cc21
// result < 5.00

// query Output pIC50 of COc1cc2c(cc1Nc1ncc(F)c(Nc3ccc(N4CCOCC4)cc3OC)n1)CCN(CC(=O)OC(C)C)CC2
// result < 5.00

// query Complete the entry with pIC50 for CCN1CCN(CC)c2cc(Nc3ncc(Cl)c(N[C@H]4[C@@H](C(N)=O)[C@@H]5C=C[C@H]4C5)n3)ccc2C1
// result 5.00 to 6.00

// query Give reported pIC50 value for CCN(CCO)Cc1cc(Nc2nc(Nc3ccc4c(c3OC)CCC(N3CCOCC3)CC4)ncc2Cl)ccc1F (stereo not shown)
// result < 5.00

// query Determine its reported pIC50: COc1ccc(Nc2nc(Nc3cc4c(cc3OC)CN(CC3CC3)CC(=O)N4C)ncc2Cl)c(-n2cccn2)c1
// result < 5.00

// query Give pIC50 for the following compound: CC1(C)CCC(=O)Nc2ccc(Nc3ncc(Cl)c(Nc4ccc(N5CCC(C(=O)O)CC5)cc4-n4cccn4)n3)cc21
// result 5.00 to 6.00

// query Report measured pIC50; entry is COCCN1CCc2ccc(Nc3ncc(Cl)c(Nc4ccccc4-c4ncccc4OC)n3)cc2CC1
// result 6.00 to 7.00

// query Supply recorded pIC50 for COCCNC1CCc2cc(Nc3ncc(Cl)c(N[C@@H]4CCCC[C@H]4NS(C)(=O)=O)n3)c(OC)cc2CC1 (stereo partly shown) [Example 896] here.
// result < 5.00

// query Give the reported value of pIC50 for this record: COc1ccc(Nc2ncc(Cl)c(N[C@H]3[C@@H](C(N)=O)[C@@H]4C=C[C@H]3C4)n2)c2c1CCCC(N1CCOCC1)C2 (single isomer, unassigned) [Example 942]
// result < 5.00

// query Retrieve pIC50 measured for COc1cc2c(cc1Nc1ncc(Cl)c(NC3(CC(N)=O)CCCCC3)n1)CCN(CCO)CC2 and print it.
// result < 5.00

* * *

Examples of compounds with documented pIC50 follow.
# ASSAY TARGET: c-Met (cytoplasmic domain) (Homo sapiens, UniProt P08581)
# Construct: 10 ng/mL c-Met (cytoplasmic domain, Invitrogen Corporation #PV3143); purchased Invitrogen Corporation PV3143
# EXPERIMENT NOTES: c-Met Kinase Assay (same methods as for ALK, with modifications)
# Format: biochemical
# EXPERIMENTAL SETUP: 1 μM ATP (Km level), 10 ng/mL c-Met; read-out: cMet Activity (c-Met kinase inhibition, IC50 class)
pIC50: −log10 of the molar value.

[[record]]
compound = "CCN1C(=O)C(N)CCc2c1ccc(Nc1ncc(Cl)c(Nc3ccc(N(C)C)cc3OC)n1)c2OC (centres unmarked)"
assay_target = "c-Met (cytoplasmic domain) (Homo sapiens, UniProt P08581)"
reported_property = "pIC50"
recorded_measurement = "< 5.00"

[[record]]
compound = "COc1cc2c(cc1Nc1ncc(Cl)c(Nc3ccc(C(N)=O)cc3OC)n1)CCN(CC(=O)N(C)C)CC2"
assay_target = "c-Met (cytoplasmic domain) (Homo sapiens, UniProt P08581)"
reported_property = "pIC50"
recorded_measurement = "< 5.00"

[[record]]
compound = "COc1cc2c(cc1Nc1ncc(Cl)c(Nc3ccc(N4CCOCC4)cc3OC)n1)CCN(Cc1ncco1)CC2"
assay_target = "c-Met (cytoplasmic domain) (Homo sapiens, UniProt P08581)"
reported_property = "pIC50"
recorded_measurement = "< 5.00"

[[record]]
compound = "COCCN1CCc2ccc(Nc3ncc(Cl)c(Nc4ccccc4C(=O)NCC(C)C)n3)cc2CC1"
assay_target = "c-Met (cytoplasmic domain) (Homo sapiens, UniProt P08581)"
reported_property = "pIC50"
recorded_measurement = "6.00 to 7.00"


// query Look up and state reported pIC50 for CN1C(=O)CCC(C)(C)c2cc(Nc3ncc(Cl)c(Nc4ccccc4S(C)(=O)=O)n3)ccc21
// result 6.00 to 7.00

// query Check the records and state pIC50 for CC(C)S(=O)(=O)c1ccccc1Nc1nc(Nc2ccc3c(c2)C(C)(C)CCC(=O)N3C)ncc1Cl
// result > 7.00

// query Please give measured pIC50 of the following entry: NC(=O)c1cccc(F)c1Nc1nc(Nc2ccc3c(c2)NC(=O)CCC3)ncc1Cl
// result 5.00 to 6.00

* * *

# ASSAY TARGET: baculovirus-expressed ALK (Homo sapiens, UniProt Q9UM73)
# Construct: host or cells: baculovirus expression system
# EXPERIMENT NOTES: ALK Kinase Assay (ELISA-type, time-resolved fluorescence)
# Format: biochemical
# EXPERIMENTAL SETUP: 1 μM ATP (Km level); read-out: ALK Activity (ALK Kinase Inhibition, IC50)
REPORTED PROPERTY: IC50

As a guide, the following entries are already answered.
[[record]]
compound = "CC1(C)CCC(=O)Nc2ccc(Nc3ncc(Cl)c(Nc4ccccc4-c4nccs4)n3)cc21"
recorded_measurement = "< 100 nM"

[[record]]
compound = "COc1cc(N2CCOCC2)ccc1Nc1nc(Nc2ccc3c(c2)CCC(N2CCOCC2)CC3)ncc1Cl (stereo not shown)"
recorded_measurement = "< 100 nM"


// query Report IC50, nothing else, for this compound: COc1cc2c(cc1Nc1ncc(Cl)c(Nc3ccccc3S(=O)(=O)N3CC[C@H](C)C3)n1)CCN(CCO)CC2
// result < 100 nM

// query Give me measured IC50, please, for this compound: CNC(=O)c1cccc(C)c1Nc1nc(Nc2ccc3c(c2)CCN(CCOC)CC3)ncc1C(F)(F)F
// result 100 to 1000 nM
